Hello, the source for this data is ChEMBL document CHEMBL3797105, in case you need it.

For each record, write down the corresponding IC50.
system: A549; experiment: Cytotoxicity against human A549 cells after 48 hrs by sulforhodamine B assay; format: functional, cell-based; conditions: A549, 48 h
Reply numerically in µM, unit not repeated.

*Q* Recall and state the measured IC50 for CC(=O)OC[C@H]1O[C@@H](n2cc(Cn3cc(/C=C/C(=O)c4ccccc4)c4ccccc43)nn2)[C@H](OC(C)=O)[C@@H](OC(C)=O)[C@@H]1OC(C)=O .
*A* 16.3

*Q* Report IC50 for CC(=O)OC[C@H]1O[C@@H](n2cc(CN3C(=O)/C(=C\c4ccc(N(C)C)cc4)c4ccccc43)nn2)[C@H](OC(C)=O)[C@@H](OC(C)=O)[C@@H]1OC(C)=O
*A* 17.7

*Q* Please report IC50 for the following compound: CC(=O)OC[C@H]1O[C@@H](n2cc(CN3C(=O)/C(=C/c4cccs4)c4ccccc43)nn2)[C@H](OC(C)=O)[C@@H](OC(C)=O)[C@@H]1OC(C)=O
*A* 20.8

*Q* Quick one: give measured IC50 for CC(=O)OC[C@H]1O[C@@H](n2cc(CN3C(=O)/C(=C/c4ccco4)c4ccccc43)nn2)[C@H](OC(C)=O)[C@@H](OC(C)=O)[C@@H]1OC(C)=O
*A* 14.5

*Q* Please look at this compound and report its IC50: CC(=O)OC[C@H]1O[C@@H](n2cc(CN3C(=O)/C(=C/c4ccc5ccccc5c4)c4ccccc43)nn2)[C@H](OC(C)=O)[C@@H](OC(C)=O)[C@@H]1OC(C)=O
*A* 30.9

*Q* Indicate its recorded IC50; the compound in question is CC(=O)OC[C@H]1O[C@@H](n2cc(CN3C(=O)/C(=C/c4ccc(C)cc4)c4ccccc43)nn2)[C@H](OC(C)=O)[C@@H](OC(C)=O)[C@@H]1OC(C)=O
*A* 16

*Q* State its IC50: CC(=O)OC[C@H]1O[C@@H](n2cc(CN3C(=O)/C(=C\c4cccs4)c4ccccc43)nn2)[C@H](OC(C)=O)[C@@H](OC(C)=O)[C@@H]1OC(C)=O
*A* 16.1

*Q* Could you please provide reported IC50 for COc1ccc(/C=C2\C(=O)N(Cc3cn([C@@H]4O[C@H](COC(C)=O)[C@@H](OC(C)=O)[C@H](OC(C)=O)[C@H]4OC(C)=O)nn3)c3ccccc32)cc1OC ? Thanks!
*A* 23.3

*Q* Respond only with IC50 recorded for CC(=O)OC[C@H]1O[C@@H](n2cc(CN3C(=O)/C(=C/c4ccccn4)c4ccccc43)nn2)[C@H](OC(C)=O)[C@@H](OC(C)=O)[C@@H]1OC(C)=O
*A* 26.1

*Q* Tell me IC50 reported for CC(=O)OC[C@H]1O[C@@H](n2cc(CN3C(=O)/C(=C\c4ccc5ccccc5c4)c4ccccc43)nn2)[C@H](OC(C)=O)[C@@H](OC(C)=O)[C@@H]1OC(C)=O
*A* 62.2

*Q* Output measured IC50 for this item: CC(=O)OC[C@H]1O[C@@H](n2cc(CN3C(=O)/C(=C\c4ccccc4)c4ccccc43)nn2)[C@H](OC(C)=O)[C@@H](OC(C)=O)[C@@H]1OC(C)=O
*A* 17.9

*Q* Please give the documented IC50 of CC(=O)OC[C@H]1O[C@@H](n2cc(CN3C(=O)/C(=C\C=C\c4ccccc4)c4ccccc43)nn2)[C@H](OC(C)=O)[C@@H](OC(C)=O)[C@@H]1OC(C)=O
*A* 58.4

*Q* Dear colleague, please send me the reported IC50 for CC(=O)OC[C@H]1O[C@@H](n2cc(CN3C(=O)/C(=C\c4ccco4)c4ccccc43)nn2)[C@H](OC(C)=O)[C@@H](OC(C)=O)[C@@H]1OC(C)=O when you can.
*A* 41.1

*Q* Determine its reported IC50: COc1ccc2c(c1)c(C=O)cn2Cc1cn([C@@H]2O[C@H](COC(C)=O)[C@@H](OC(C)=O)[C@H](OC(C)=O)[C@H]2OC(C)=O)nn1
*A* 106
